# System: DNA Pol I (Klenow fragment, exo-)
# PROTOCOL SUMMARY: steady-state kinetics of single nucleotide insertions, incoming nucleotide analogues (dNTP/dXTP)
# Assay type: biochemical, E. coli
# TEST CONTEXT: dNTP inserted opposite template base T; 37° C.

| MOLECULE | Km / µM |
| --- | --- |
| Cc1cc(C2CC(O)C(COP(=O)(O)OP(=O)(O)OP(=O)(O)O)O2)c(Cl)cc1Cl (stereo not drawn) [dLTP] | 62 |
| Cc1cc(C2CC(O)C(COP(=O)(O)OP(=O)(O)OP(=O)(O)O)O2)c(I)cc1I (stereo not drawn) [dITP] | 37 |
| Cc1cc(C2CC(O)C(COP(=O)(O)OP(=O)(O)OP(=O)(O)O)O2)c(F)cc1F (stereo not drawn) [dFTP, reference compound] | 37 |
| Cc1cccc(C2CC(O)C(COP(=O)(O)OP(=O)(O)OP(=O)(O)O)O2)c1 (stereo not drawn) [dHTP] | 59 |
| Cc1cn([C@H]2C[C@H](O)[C@@H](COP(=O)(O)OP(=O)(O)OP(=O)(O)O)O2)c(=O)[nH]c1=O [dTTP, reference compound] | 63 |
| Cc1cc(C2CC(O)C(COP(=O)(O)OP(=O)(O)OP(=O)(O)O)O2)c(Br)cc1Br (stereo not drawn) [dBTP] | 38 |

====

# Test system: self-complementary strands (5′-XCGCGCG)
# PROTOCOL SUMMARY: dangling end thermal denaturation studies (base stacking) with self-complementary strands
# Assay type: physicochemical
# TEST CONTEXT: dangling residue X in 5′-XCGCGCG
PARAMETER MEASURED: ΔG°37 (van't Hoff) (kcal/mol)

| COMPOUND | PARAMETER MEASURED | UNIT LABEL | ENDPOINT VALUE |
| --- | --- | --- | --- |
| Cc1ccc(I)cc1I | ΔG°37 (van't Hoff) | kcal/mol | -10.4 |
| Cc1c[nH]c(=O)[nH]c1=O [T, thymine, reference compound] | ΔG°37 (van't Hoff) | kcal/mol | -9.1 |
| Cc1ccc(Br)cc1Br | ΔG°37 (van't Hoff) | kcal/mol | -10.8 |
| Cc1ccc(Cl)cc1Cl | ΔG°37 (van't Hoff) | kcal/mol | -10.0 |

====

Tm by entry:
# Test system: self-complementary strands (5′-XCGCGCG)
# PROTOCOL SUMMARY: dangling end thermal denaturation studies (base stacking) with self-complementary strands
# Format: physicochemical
# TEST CONTEXT: dangling residue X in 5′-XCGCGCG; 5.0 μM DNA strand; 1M NaCl, 10 mM phosphate buffer (pH 7.0), 0.1 mM EDTA; 280 nm

| COMPOUND | Tm (°C) |
| --- | --- |
| Cc1ccc(I)cc1I | 53.8 |
| Cc1c[nH]c(=O)[nH]c1=O [T, thymine, reference compound] | 46.0 |
| Cc1ccc(Cl)cc1Cl | 52.3 |
| Cc1ccc(Br)cc1Br | 54.3 |

====

log10 of Km by entry:
# Test system: DNA Pol I (Klenow fragment, exo-)
# PROTOCOL SUMMARY: steady-state kinetics of single nucleotide insertions, incoming nucleotide analogues (dNTP/dXTP)
# Format: biochemical, E. coli
# TEST CONTEXT: dNTP inserted opposite template base C; 37° C.
PARAMETER MEASURED: log10 of Km (log10 of the value in µM)

| MOLECULE | ENDPOINT VALUE |
| --- | --- |
| Cc1cccc(C2CC(O)C(COP(=O)(O)OP(=O)(O)OP(=O)(O)O)O2)c1 (stereo not drawn) | 2.49 |
| Cc1cc(C2CC(O)C(COP(=O)(O)OP(=O)(O)OP(=O)(O)O)O2)c(I)cc1I (stereo not drawn) | 1.36 |
| Cc1cn([C@H]2C[C@H](O)[C@@H](COP(=O)(O)OP(=O)(O)OP(=O)(O)O)O2)c(=O)[nH]c1=O [dTTP, reference compound] | 2.71 |
| Cc1cc(C2CC(O)C(COP(=O)(O)OP(=O)(O)OP(=O)(O)O)O2)c(Br)cc1Br (stereo not drawn) | 1.87 |
| Cc1cc(C2CC(O)C(COP(=O)(O)OP(=O)(O)OP(=O)(O)O)O2)c(Cl)cc1Cl (stereo not drawn) | 2.20 |
| Cc1cc(C2CC(O)C(COP(=O)(O)OP(=O)(O)OP(=O)(O)O)O2)c(F)cc1F (stereo not drawn) [dFTP, reference compound] | 2.30 |

From: patent US7473683B2
